Target: QPCT (Homo sapiens, UniProt Q16769)
Construct: purchased Origine (OriGene) TP700028
Sequence (Q16769 29-361): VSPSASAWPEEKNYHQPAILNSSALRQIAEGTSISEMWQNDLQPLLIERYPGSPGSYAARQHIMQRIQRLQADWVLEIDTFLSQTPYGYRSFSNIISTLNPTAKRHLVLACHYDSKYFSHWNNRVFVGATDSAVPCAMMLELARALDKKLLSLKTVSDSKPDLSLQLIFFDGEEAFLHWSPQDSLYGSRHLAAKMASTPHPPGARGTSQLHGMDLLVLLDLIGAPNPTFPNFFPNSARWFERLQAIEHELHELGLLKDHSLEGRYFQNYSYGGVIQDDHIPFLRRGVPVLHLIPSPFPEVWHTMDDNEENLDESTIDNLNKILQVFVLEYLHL
Experiment: Assay A: biochemical QPCT activity assay (MALDI-TOF MS, CD47 peptide substrate)
Details: Table 2, compounds of the invention, read-out: Inhibition of QPCT: IC50
Listed compounds paired with reported IC50
observation type: IC50 (nM)

Cn1cnnc1C1(F)CCN(c2c(C#N)cc(C3CC3)nc2-c2ccnnc2)CC1 [Example 1]	2
Cn1cnnc1C1(F)CCN(c2c(C#N)cc(C3CC3)nc2-c2cnc3nn(C)c(C(F)(F)F)c3c2)CC1 [Example 11]	3
Cn1cnnc1C1(F)CCN(c2c(C#N)cc(-c3cccnc3)nc2-c2cnc3nn(C(F)(F)F)cc3c2)CC1 [Example 21]	2
Cn1cnnc1C1(F)CCN(c2c(C#N)cc(C(F)(F)F)nc2-c2cc3cn(C(C)(C)C)nc3nc2C(F)F)CC1 [Example 14]	11
Cc1cc(C#N)c(N2CCC(F)(c3nncn3C)CC2)c(-c2cnc3nn(C(F)(F)F)cc3c2)n1 [Example 5]	3
Cc1ccc(-c2cc(C#N)c(N3CCC(F)(c4nncn4C)CC3)c(-c3cnc4nn(C(F)(F)F)cc4c3)n2)cn1 [Example 22]	3
Cn1cnnc1C1(F)CCN(c2c(C#N)cc(-c3ccc(F)cc3)nc2-c2ccnnc2)CC1 [Example 18]	5
Cc1nn(C)c(C)c1-c1cc(C#N)c(N2CCC(F)(c3nncn3C)CC2)c(-c2cnc3nn(C(F)(F)F)cc3c2)n1 [Example 23]	2
Cn1cc(-c2cc(C#N)c(N3CCC(F)(c4nncn4C)CC3)c(-c3cnc4nn(C(F)(F)F)cc4c3)n2)cn1 [Example 24]	3

###

System: murine hepatocytes
Assay: Assay E: stability in murine hepatocytes
Assay type: in vitro ADME, mouse
Settings: Table 12, compounds of the invention, 1 μM, 5% species serum
observation type: Mouse Hepatocyte Stability QH

Cc1nn(C)c(C)c1-c1cc(C#N)c(N2CCC(F)(c3nncn3C)CC2)c(-c2cnc3nn(C(F)(F)F)cc3c2)n1	<12%
Cn1cnnc1C1(F)CCN(c2c(C#N)cc(C(C)(F)F)nc2-c2cnc3nn(C(F)(F)F)cc3c2)CC1	<12%
Cn1cnnc1C1(F)CCN(c2c(C#N)cc(C3CC3(F)F)nc2-c2ccnnc2)CC1 (stereo not drawn)	<12%

###

System: CYP3A4 mRNA
Experiment: Assay D: CYP induction screening assay in primary human hepatocytes
Type: in vitro ADME
Settings: Table 9, compounds of the invention, 48 h
Returns one of satisfied or not satisfied; satisfied when n-fold induction of CYP3A4 at 10 μM is >= 1 n-fold.

Cn1cnnc1C1(F)CCN(c2c(C#N)cc(C(F)(F)F)nc2-c2cnc3nn(C(C)(C)C)c(C4CC4)c3c2)CC1	satisfied
Cn1cnnc1C1(F)CCN(c2c(C#N)cc(-c3ccc(F)cc3)nc2-c2ccnnc2)CC1	satisfied
Cc1ncc(-c2cc(C#N)c(N3CCC(F)(c4nncn4C)CC3)c(-c3cnc4nn(C(F)(F)F)cc4c3)n2)cn1	not satisfied
Cn1cnnc1C1(F)CCN(c2c(C#N)cc(C3CC3(F)F)nc2-c2ccnnc2)CC1 (stereo not shown)	not satisfied
Cc1ncc(-c2cc(C#N)c(N3CCC(F)(c4nncn4C)CC3)c(-c3cnc4nn(C(F)(F)F)cc4c3)n2)o1	satisfied
Cn1cnnc1C1(F)CCN(c2c(C#N)cc(-c3cnc(C(F)(F)F)nc3)nc2-c2cnc3nn(C(F)(F)F)cc3c2)CC1	not satisfied
Cc1nn(C)c(C)c1-c1cc(C#N)c(N2CCC(F)(c3nncn3C)CC2)c(-c2cnc3nn(C(F)(F)F)cc3c2)n1	satisfied
Cn1cnnc1C1(F)CCN(c2c(C#N)cc(C(F)(F)F)nc2-c2cnc3nn(C)c(C(F)(F)F)c3c2)CC1	satisfied
Cn1cnnc1C1(F)CCN(c2c(C#N)cc(C(F)(F)F)nc2-c2cnc3nn(C(C)(C)C)c(C(F)F)c3c2)CC1	satisfied
Cc1cc(-c2nc(C3CC3)cc(C#N)c2N2CCC(F)(c3nncn3C)CC2)cnn1	satisfied

###

Target: QPCTL (Homo sapiens)
Construct: made in house
Sequence (Q9NXS2 whole entry, species assumed): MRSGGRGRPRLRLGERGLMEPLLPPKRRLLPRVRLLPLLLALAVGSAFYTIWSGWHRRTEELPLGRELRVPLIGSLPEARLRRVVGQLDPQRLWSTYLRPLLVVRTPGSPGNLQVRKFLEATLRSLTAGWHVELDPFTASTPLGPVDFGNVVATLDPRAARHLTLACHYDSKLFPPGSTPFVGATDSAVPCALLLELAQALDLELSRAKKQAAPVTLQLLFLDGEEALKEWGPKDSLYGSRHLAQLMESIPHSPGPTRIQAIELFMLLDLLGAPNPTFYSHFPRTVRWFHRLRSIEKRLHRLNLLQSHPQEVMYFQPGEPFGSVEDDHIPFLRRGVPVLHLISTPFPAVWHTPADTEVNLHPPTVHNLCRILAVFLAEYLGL
Experiment: Assay A: biochemical QPCTL activity assay (MALDI-TOF MS, CD47 peptide substrate)
Details: Table 2, compounds of the invention, read-out: Inhibition of QPCTL: IC50
observation type: IC50 (nM)

Cn1cnnc1C1(F)CCN(c2c(C#N)cc(C(F)(F)F)nc2-c2cnc3nn(C(C)(C)C)c(C(F)F)c3c2)CC1	3
Cn1cnnc1C1(F)CCN(c2c(C#N)cc(C(C)(F)F)nc2-c2cnc3nn(C(F)(F)F)cc3c2)CC1	3
Cc1ncc(-c2cc(C#N)c(N3CCC(F)(c4nncn4C)CC3)c(-c3cnc4nn(C(F)(F)F)cc4c3)n2)cn1	3
